- System: 519858-162-T-J1-PDC complex spheroid growth, % test/control
- assay_overview: Anticancer human tumor 519858-162-T-J1-PDC patient-derived colon adenocarcinoma cell line growth inhibition [Asc]
- conditions_used: second compound 0.0949 µM; first compound 0.1 µM; stronger effect = lower value
assay_readout: viability, T/C

compound	tgt	assay_readout	recorded_result
NC1CCC(NC2CC2c2ccccc2)CC1 (stereo not drawn) + CCN1C(C(=O)NC23CCC(C(=O)O)(CC2)CC3)C(c2cccc(Cl)c2F)C2(C(=O)Nc3cc(Cl)ccc32)C12CCCCC2	519858-162-T-J1-PDC complex spheroid growth, % test/control	viability, T/C	107%
CNC(C)C(=O)NC1CN(S(=O)(=O)c2cccc(S(=O)(=O)N3CCC4CCC(C(=O)NC(c5ccccc5)c5ccccc5)N4C(=O)C(NC(=O)C(C)NC)C3)c2)CCC2CCC(C(=O)NC(c3ccccc3)c3ccccc3)N2C1=O (stereo not drawn) + CCN1C(C(=O)NC23CCC(C(=O)O)(CC2)CC3)C(c2cccc(Cl)c2F)C2(C(=O)Nc3cc(Cl)ccc32)C12CCCCC2	519858-162-T-J1-PDC complex spheroid growth, % test/control	viability, T/C	75.4%
C=CC(=O)N1CCN(c2nc(=O)n(-c3c(C)ccnc3C(C)C)c3nc(-c4c(O)cccc4F)c(F)cc23)C(C)C1 (stereo not drawn) + CCN1C(C(=O)NC23CCC(C(=O)O)(CC2)CC3)C(c2cccc(Cl)c2F)C2(C(=O)Nc3cc(Cl)ccc32)C12CCCCC2	519858-162-T-J1-PDC complex spheroid growth, % test/control	viability, T/C	106%

---

- System: 519858-162-T-J1-PDC complex spheroid growth, % test/control
- assay_overview: Anticancer human tumor 519858-162-T-J1-PDC cell line growth inhibition [Asc];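 also: seven day drug exposure begun three days after spheroid seeding; 100% = DMSO vehicle wells and lower values mean less viable spheroid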
- conditions_used: second compound 0.0316 µM; first compound 0.03 µM; stronger effect = lower value
The entries below come with measured viability, T/C values attached.

molecule	tgt	viability, T/C
NC(=O)C(=Cn1cnc(-c2cc(C(F)(F)F)cc(C(F)(F)F)c2)n1)c1cncnc1 + Cc1c(S(C)(=O)=O)c(-c2cc(F)cc(N3CCN(c4ccc(NS(=O)(=O)c5ccc(NC(CCN6CCC(C(=O)OCCCP(=O)(O)O)CC6)CSc6ccccc6)c(S(=O)(=O)C(F)(F)F)c5)cc4)CC3)c2)c(-c2ccc(Cl)cc2)n1C(C)C	519858-162-T-J1-PDC complex spheroid growth, % test/control	66%
CCN1C(C(=O)NC23CCC(C(=O)O)(CC2)CC3)C(c2cccc(Cl)c2F)C2(C(=O)Nc3cc(Cl)ccc32)C12CCCCC2 (stereo unspecified) + Cc1c(S(C)(=O)=O)c(-c2cc(F)cc(N3CCN(c4ccc(NS(=O)(=O)c5ccc(NC(CCN6CCC(C(=O)OCCCP(=O)(O)O)CC6)CSc6ccccc6)c(S(=O)(=O)C(F)(F)F)c5)cc4)CC3)c2)c(-c2ccc(Cl)cc2)n1C(C)C	519858-162-T-J1-PDC complex spheroid growth, % test/control	50%
Cc1nc(N2CCC3(CC2)COC(C)C3N)c(CO)nc1Sc1ccnc(N)c1Cl (stereo unspecified) + Cc1c(S(C)(=O)=O)c(-c2cc(F)cc(N3CCN(c4ccc(NS(=O)(=O)c5ccc(NC(CCN6CCC(C(=O)OCCCP(=O)(O)O)CC6)CSc6ccccc6)c(S(=O)(=O)C(F)(F)F)c5)cc4)CC3)c2)c(-c2ccc(Cl)cc2)n1C(C)C	519858-162-T-J1-PDC complex spheroid growth, % test/control	106%
NC(=O)C(=Cn1cnc(-c2cc(C(F)(F)F)cc(C(F)(F)F)c2)n1)c1cncnc1 + CNC(C)C(=O)NC1CN(S(=O)(=O)c2cccc(S(=O)(=O)N3CCC4CCC(C(=O)NC(c5ccccc5)c5ccccc5)N4C(=O)C(NC(=O)C(C)NC)C3)c2)CCC2CCC(C(=O)NC(c3ccccc3)c3ccccc3)N2C1=O	519858-162-T-J1-PDC complex spheroid growth, % test/control	54.8%
CCN1C(C(=O)NC23CCC(C(=O)O)(CC2)CC3)C(c2cccc(Cl)c2F)C2(C(=O)Nc3cc(Cl)ccc32)C12CCCCC2 (stereo unspecified) + CNC(C)C(=O)NC1CN(S(=O)(=O)c2cccc(S(=O)(=O)N3CCC4CCC(C(=O)NC(c5ccccc5)c5ccccc5)N4C(=O)C(NC(=O)C(C)NC)C3)c2)CCC2CCC(C(=O)NC(c3ccccc3)c3ccccc3)N2C1=O	519858-162-T-J1-PDC complex spheroid growth, % test/control	73.9%
Cc1nc(N2CCC3(CC2)COC(C)C3N)c(CO)nc1Sc1ccnc(N)c1Cl (stereo unspecified) + CNC(C)C(=O)NC1CN(S(=O)(=O)c2cccc(S(=O)(=O)N3CCC4CCC(C(=O)NC(c5ccccc5)c5ccccc5)N4C(=O)C(NC(=O)C(C)NC)C3)c2)CCC2CCC(C(=O)NC(c3ccccc3)c3ccccc3)N2C1=O	519858-162-T-J1-PDC complex spheroid growth, % test/control	91.4%
